- Tested on: ACHN
- test name: Growth inhibition of human ACHN cells assessed as cell growth at 10 uM incubated for 48 hrs by sulforhodamine B assay relative to control
- Type: functional
- condition label: read-out: Activity
quantity name: growth at 10 µM (%)
One number for each entry, in %.

Consider the following illustrative entries.
compound structure | assay system | growth at 10 µM (%)
COc1cc(Cl)cc(-c2nn(-c3cccc(NC(=O)Nc4cccc(C(F)(F)F)c4)c3)cc2-c2ccncc2)c1 | ACHN | 5.44
COc1cc(Cl)cc(-c2nn(-c3cccc(NC(=O)Nc4ccc(Cl)c(Cl)c4)c3)cc2-c2ccncc2)c1 | ACHN | 9.65
COc1cc(Cl)cc(-c2nn(-c3cccc(NC(=O)c4ccc(N5CCOCC5)c(C(F)(F)F)c4)c3)cc2-c2ccncc2)c1 | ACHN | 50.1
COc1cc(Cl)cc(-c2nn(-c3cccc(NC(=O)Nc4ccc(Cl)c(C(F)(F)F)c4)c3)cc2-c2ccncc2)c1 | ACHN | 8.78

Ask: What measured growth at 10 µM goes with COc1cc(Cl)cc(-c2nn(-c3cccc(NC(=O)c4ccc(Cl)c(Cl)c4)c3)cc2-c2ccncc2)c1 ?
Reply: 63.9
